Reference for the values: paper PMC4336329

# assayed-target: human ether-à-go-go-related gene (hERG) potassium channel (human);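 further: peak tail current of the secondary pulse compared with the same well before compound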
# Sequence (Q12809 whole entry, looked up): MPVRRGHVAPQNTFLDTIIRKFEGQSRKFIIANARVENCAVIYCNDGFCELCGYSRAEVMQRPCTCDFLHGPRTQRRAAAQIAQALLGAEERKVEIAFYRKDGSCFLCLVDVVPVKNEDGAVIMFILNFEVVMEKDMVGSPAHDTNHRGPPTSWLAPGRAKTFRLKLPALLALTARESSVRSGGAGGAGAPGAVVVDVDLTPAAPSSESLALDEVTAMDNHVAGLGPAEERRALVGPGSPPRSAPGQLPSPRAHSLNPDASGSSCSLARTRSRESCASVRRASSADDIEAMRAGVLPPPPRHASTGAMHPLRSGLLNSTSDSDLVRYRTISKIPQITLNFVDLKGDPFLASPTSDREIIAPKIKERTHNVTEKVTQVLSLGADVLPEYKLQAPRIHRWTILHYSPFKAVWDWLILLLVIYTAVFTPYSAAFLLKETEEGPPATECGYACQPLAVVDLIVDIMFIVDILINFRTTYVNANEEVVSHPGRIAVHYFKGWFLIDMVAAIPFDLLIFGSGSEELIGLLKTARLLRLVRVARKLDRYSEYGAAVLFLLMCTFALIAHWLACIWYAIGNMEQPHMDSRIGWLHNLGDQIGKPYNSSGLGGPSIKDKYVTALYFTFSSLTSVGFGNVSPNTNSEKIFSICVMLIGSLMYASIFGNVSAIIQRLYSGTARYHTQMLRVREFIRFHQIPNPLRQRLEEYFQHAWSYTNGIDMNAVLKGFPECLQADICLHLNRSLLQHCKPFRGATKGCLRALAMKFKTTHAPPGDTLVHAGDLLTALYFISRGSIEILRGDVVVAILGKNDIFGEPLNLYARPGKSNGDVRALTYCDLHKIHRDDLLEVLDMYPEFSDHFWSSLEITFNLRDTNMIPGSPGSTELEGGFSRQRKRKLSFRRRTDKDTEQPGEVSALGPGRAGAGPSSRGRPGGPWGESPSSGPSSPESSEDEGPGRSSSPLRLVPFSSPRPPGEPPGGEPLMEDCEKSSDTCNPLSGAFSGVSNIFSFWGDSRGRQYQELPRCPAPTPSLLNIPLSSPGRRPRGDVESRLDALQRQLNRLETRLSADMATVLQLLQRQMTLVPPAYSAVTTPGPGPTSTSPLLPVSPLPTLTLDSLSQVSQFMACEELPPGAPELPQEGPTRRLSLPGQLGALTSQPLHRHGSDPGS
# test-description: primary screen, population patch clamp on CHO cells stably expressing hERG; higher = less effect of the substance
Screen size: about 310,000 compounds; about 14,000 (4.5%) showed an effect of 50% or more. The effect is printed as a negative number. Only a selection was taken, and strong results are over-represented in it overall.
measurement-kind: hERG current change (%, negative = inhibition) at 10uM (%)

| molecule | reported |
| --- | --- |
| CCOC(=O)c1c(-c2ccccc2)oc2ccc(OC)cc12 | 1.46 |
| CCOC(=O)c1c(C)n(CCN2CCN(C)CC2)c2ccc(OC)cc12.Cl | -20.2 |
| O=C(NCC1CCCCC1)C1(CC2CC(c3ccc(Cl)cc3)=NO2)CCNCC1 (stereo not drawn) | -71.6 |
